biological target: Neutrophil elastase (Homo sapiens, UniProt P08246); experiment: Observed binding affinity against Human leukocyte elastase (HLE)
Sequence (P08246 whole entry): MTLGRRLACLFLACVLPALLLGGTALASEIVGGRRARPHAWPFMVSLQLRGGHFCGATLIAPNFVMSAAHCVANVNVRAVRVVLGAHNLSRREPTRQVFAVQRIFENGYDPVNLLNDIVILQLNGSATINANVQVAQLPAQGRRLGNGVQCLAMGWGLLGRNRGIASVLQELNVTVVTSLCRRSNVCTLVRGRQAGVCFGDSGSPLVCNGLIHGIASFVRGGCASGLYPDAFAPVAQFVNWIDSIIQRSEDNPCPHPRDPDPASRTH
measuredParameter: Ki (nM)

Before answering, review these 2 worked examples.
Exercise: Output Ki of CCC1CCCC2=C1C(=O)N(COC(=O)c1c(Cl)cccc1Cl)S2(=O)=O (centres undefined)
Solution: 0.708

Exercise: Return Ki (reported value) for this molecule: CC1CCCC2=C1C(=O)N(COC(=O)c1c(Cl)cccc1Cl)S2(=O)=O (centres undefined)
Solution: 1

1 = CC(C)C1CCCC2=C1C(=O)N(COC(=O)c1c(Cl)cccc1Cl)S2(=O)=O (centres undefined)
2 = CCc1cccc2c1C(=O)N(COC(=O)c1c(Cl)cccc1Cl)S2(=O)=O
Exercise: Which is greater in Ki, the first item 1 or the second item 2 ? Refer to your chosen entry by its label in the reply.
Solution: 1
